As an illustration, consider measured pIC50 for compounds on Acetyl-CoA carboxylase 2 (Homo sapiens).
Sequence (O00763 whole entry): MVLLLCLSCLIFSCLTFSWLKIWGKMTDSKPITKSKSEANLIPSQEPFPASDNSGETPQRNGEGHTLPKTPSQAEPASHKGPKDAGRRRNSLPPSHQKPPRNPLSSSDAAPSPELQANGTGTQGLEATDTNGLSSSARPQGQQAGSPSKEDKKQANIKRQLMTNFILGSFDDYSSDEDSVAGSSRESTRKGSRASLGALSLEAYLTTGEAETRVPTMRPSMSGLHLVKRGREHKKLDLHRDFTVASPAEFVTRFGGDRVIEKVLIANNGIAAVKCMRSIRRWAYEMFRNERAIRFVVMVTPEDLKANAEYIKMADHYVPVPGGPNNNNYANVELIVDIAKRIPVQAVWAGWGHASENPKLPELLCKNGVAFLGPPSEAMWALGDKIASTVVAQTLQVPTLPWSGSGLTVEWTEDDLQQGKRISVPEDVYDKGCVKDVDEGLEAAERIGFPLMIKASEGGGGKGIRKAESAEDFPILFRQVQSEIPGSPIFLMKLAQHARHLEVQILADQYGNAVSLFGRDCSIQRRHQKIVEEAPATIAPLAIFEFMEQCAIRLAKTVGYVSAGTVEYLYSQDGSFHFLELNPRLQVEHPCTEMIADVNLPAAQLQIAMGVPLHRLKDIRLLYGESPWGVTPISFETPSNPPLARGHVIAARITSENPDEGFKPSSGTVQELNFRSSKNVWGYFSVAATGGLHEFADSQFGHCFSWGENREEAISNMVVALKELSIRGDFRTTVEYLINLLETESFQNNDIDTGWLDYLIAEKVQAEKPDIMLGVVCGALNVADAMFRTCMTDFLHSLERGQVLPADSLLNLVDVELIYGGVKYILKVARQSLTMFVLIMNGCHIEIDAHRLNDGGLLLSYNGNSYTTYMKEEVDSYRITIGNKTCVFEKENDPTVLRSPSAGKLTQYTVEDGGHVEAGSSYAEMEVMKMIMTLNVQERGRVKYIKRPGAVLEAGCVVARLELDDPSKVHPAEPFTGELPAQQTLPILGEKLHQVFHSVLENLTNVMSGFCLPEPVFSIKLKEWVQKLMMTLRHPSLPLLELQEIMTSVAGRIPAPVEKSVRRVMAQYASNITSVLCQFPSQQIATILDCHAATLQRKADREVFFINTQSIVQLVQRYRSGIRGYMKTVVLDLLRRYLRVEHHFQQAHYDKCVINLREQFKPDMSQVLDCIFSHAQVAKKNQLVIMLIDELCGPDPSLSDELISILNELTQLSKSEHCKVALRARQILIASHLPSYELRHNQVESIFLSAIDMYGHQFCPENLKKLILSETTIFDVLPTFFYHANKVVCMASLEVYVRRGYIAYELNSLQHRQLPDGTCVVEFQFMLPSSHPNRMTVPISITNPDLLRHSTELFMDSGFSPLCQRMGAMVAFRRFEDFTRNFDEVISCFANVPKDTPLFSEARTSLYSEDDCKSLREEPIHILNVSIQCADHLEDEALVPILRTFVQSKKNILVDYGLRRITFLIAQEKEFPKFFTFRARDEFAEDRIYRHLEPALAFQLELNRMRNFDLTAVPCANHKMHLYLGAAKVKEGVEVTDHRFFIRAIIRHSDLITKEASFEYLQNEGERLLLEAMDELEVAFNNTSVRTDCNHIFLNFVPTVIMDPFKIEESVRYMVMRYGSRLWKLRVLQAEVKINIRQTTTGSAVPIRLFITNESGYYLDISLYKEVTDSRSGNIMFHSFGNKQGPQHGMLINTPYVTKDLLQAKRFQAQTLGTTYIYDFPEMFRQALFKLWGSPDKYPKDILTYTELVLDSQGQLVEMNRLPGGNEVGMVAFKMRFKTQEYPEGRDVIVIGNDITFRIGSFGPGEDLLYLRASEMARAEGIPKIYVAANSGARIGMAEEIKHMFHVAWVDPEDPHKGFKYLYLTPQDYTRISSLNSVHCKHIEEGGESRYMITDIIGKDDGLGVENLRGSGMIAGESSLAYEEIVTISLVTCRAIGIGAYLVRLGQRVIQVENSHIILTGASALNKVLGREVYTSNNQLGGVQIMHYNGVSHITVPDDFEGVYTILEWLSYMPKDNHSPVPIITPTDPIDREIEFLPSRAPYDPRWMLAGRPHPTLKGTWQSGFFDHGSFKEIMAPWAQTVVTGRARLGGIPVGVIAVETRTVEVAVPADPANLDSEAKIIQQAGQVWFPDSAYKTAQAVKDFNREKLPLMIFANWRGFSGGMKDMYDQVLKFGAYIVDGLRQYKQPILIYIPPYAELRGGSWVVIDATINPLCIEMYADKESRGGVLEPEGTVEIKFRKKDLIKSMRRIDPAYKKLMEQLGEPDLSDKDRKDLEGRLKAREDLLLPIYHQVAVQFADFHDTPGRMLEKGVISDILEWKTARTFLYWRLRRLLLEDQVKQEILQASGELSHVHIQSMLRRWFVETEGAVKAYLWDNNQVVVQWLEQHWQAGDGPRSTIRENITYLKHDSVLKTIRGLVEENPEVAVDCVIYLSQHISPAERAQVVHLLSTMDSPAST
Give only the number. pIC50 is defined as minus log10 of concentration in molar units.

See these solved cases before continuing.
CC(=O)NC(C)Cc1ccc(C#Cc2ccnc(NCC(F)F)n2)cc1 (centres undefined) :: 5.00
CC(=O)NC(C)Cc1ccc(C#Cc2cccc(C(=O)N3CCC3)c2)cc1 (centres undefined) :: 5.68

Q: Any idea what its pIC50 is? The compound is CC(=O)NC(C)Cc1ccc(C#Cc2ccc(C(=O)NCC(C)C)cc2)cc1 (centres undefined)
Result: 5.38

Q: Similarly, CCOc1ccc(C#Cc2ccc(CC(C)NC(=O)CC3CC3)cc2)cc1 (centres undefined) ?
Result: 6.10
